System: Bscl2-GFP
Test: ToxTracker genotoxicity assay, Bscl2-GFP reporter induction
Conditions: GFP induction vs vehicle at 10% cytotoxicity; 24 h exposure, no S9
readout: Genotoxicity test, Without S9 rat liver extract, Bscl 2, 10 (fold)

>  <molecule>
CC(CN1CC1C)OC(=O)NCCCCCC/N=c1\oc(=O)n(CCCCCCNC(=O)OC(C)CN2CC2C)c(=O)n1CCCCCCNC(=O)OC(C)CN1CC1C (centres unmarked)

>  <readout.unit>
fold

>  <measured>
1.1

$$$$
>  <molecule>
C=CCOCC(CN1CC1C)OC(=O)NCCCCCCn1c(=O)n(CCCCCCNC(=O)OC(COCC=C)CN2CC2C)c(=O)n(CCCCCCNC(=O)OC(COCC=C)CN2CC2C)c1=O (centres unmarked)

>  <readout.unit>
fold

>  <measured>
1.1

$$$$
>  <molecule>
CC(CN1CC1C)OC(=O)NCC1(C)CC(NC(=O)OC(C)CN2CC2C)CC(C)(C)C1 (centres unmarked) [Comp. Ex. 7, reference compound]

>  <readout.unit>
fold

>  <measured>
1.2

$$$$
>  <molecule>
COCCOCCOCCOCCOCCOCCOCCOCCOCCOCCOCCOCCOCCOCC(CN1CC1C)OC(=O)NCCCCCCn1c(=O)n(CCCCCCNC(=O)OC(COCCOCCOCCOCCOCCOCCOCCOCCOCCOCCOCCOCCOCCOC)CN2CC2C)c(=O)n(CCCCCCNC(=O)OC(COCCOCCOCCOCCOCCOCCOCCOCCOCCOCCOCCOCCOCCOC)CN2CC2C)c1=O (centres unmarked)

>  <readout.unit>
fold

>  <measured>
1.1

$$$$
>  <molecule>
CCCCCCCCCC(=O)OCC(CN1CC1C)OC(=O)NC(C)(C)c1cccc(C(C)(C)NC(=O)OC(COC(=O)CCCCCCCCC)CN2CC2C)c1 (centres unmarked)

>  <readout.unit>
fold

>  <measured>
1.0

$$$$

* * *

Recorded Genotoxicity test, With S9 rat liver extract, Rtkn, 50, one value per entry.
Test system: Rtkn-GFP
Assay: ToxTracker genotoxicity assay, Rtkn-GFP reporter induction
Conditions: GFP induction vs vehicle at 50% cytotoxicity; 3 h exposure with S9, 24 h recovery
readout: Genotoxicity test, With S9 rat liver extract, Rtkn, 50 (fold)

>  <molecule>
COCCOCCOCCOCCOCCOCCOCCOCCOCCOCCOCCOCCOCCOCC(CN1CC1C)OC(=O)NCCCCCCn1c(=O)n(CCCCCCNC(=O)OC(COCCOCCOCCOCCOCCOCCOCCOCCOCCOCCOCCOCCOCCOC)CN2CC2C)c(=O)n(CCCCCCNC(=O)OC(COCCOCCOCCOCCOCCOCCOCCOCCOCCOCCOCCOCCOCCOC)CN2CC2C)c1=O (centres unmarked)

>  <readout.unit>
fold

>  <measured>
1.1

$$$$
>  <molecule>
CCCCCCCCCC(=O)OCC(CN1CC1C)OC(=O)NC(C)(C)c1cccc(C(C)(C)NC(=O)OC(COC(=O)CCCCCCCCC)CN2CC2C)c1 (centres unmarked)

>  <readout.unit>
fold

>  <measured>
1.0

$$$$
>  <molecule>
CCCCOCC(CN1CC1C)OC(=O)NC1CCC(CC2CCC(NC(=O)OC(COCCCC)CN3CC3C)CC2)CC1 (centres unmarked)

>  <readout.unit>
fold

>  <measured>
1.1

$$$$
>  <molecule>
CCCCOCC(CN1CC1C)OC(=O)NC(C)(C)c1cccc(C(C)(C)NC(=O)OC(COCCCC)CN2CC2C)c1 (centres unmarked)

>  <readout.unit>
fold

>  <measured>
1.1

$$$$
>  <molecule>
C=CCOCC(CN1CC1C)OC(=O)NCCCCCCn1c(=O)n(CCCCCCNC(=O)OC(COCC=C)CN2CC2C)c(=O)n(CCCCCCNC(=O)OC(COCC=C)CN2CC2C)c1=O (centres unmarked)

>  <readout.unit>
fold

>  <measured>
1.2

$$$$
>  <molecule>
CC(CN1CC1C)OC(=O)NCCCCCCn1c(=O)n(CCCCCCNC(=O)OC(C)CN2CC2C)c(=O)n(CCCCCCNC(=O)OC(C)CN2CC2C)c1=O (centres unmarked)

>  <readout.unit>
fold

>  <measured>
0.9

$$$$
>  <molecule>
CCCCCCCCCC(=O)OCC(CN1CC1C)OC(=O)NCCCCCCn1c(=O)n(CCCCCCNC(=O)OC(COC(=O)CCCCCCCCC)CN2CC2C)c(=O)n(CCCCCCNC(=O)OC(COC(=O)CCCCCCCCC)CN2CC2C)c1=O (centres unmarked)

>  <readout.unit>
fold

>  <measured>
1.2

$$$$
>  <molecule>
CCC(CN1CC1C)OC(=O)NCCCCCCn1c(=O)n(CCCCCCNC(=O)OC(CC)CN2CC2C)c(=O)n(CCCCCCNC(=O)OC(CC)CN2CC2C)c1=O (centres unmarked)

>  <readout.unit>
fold

>  <measured>
1.5

$$$$
>  <molecule>
CC(CN1CC1C)OC(=O)NCCCCCCNC(=O)OC(C)CN1CC1C (centres unmarked) [Comp. Ex. 6, reference compound]

>  <readout.unit>
fold

>  <measured>
2.1

$$$$
>  <molecule>
CCCCOCC(CN1CC1C)OC(=O)NCCCCCCn1c(=O)n(CCCCCCNC(=O)OC(COCCCC)CN2CC2C)c(=O)n(CCCCCCNC(=O)OC(COCCCC)CN2CC2C)c1=O (centres unmarked)

>  <readout.unit>
fold

>  <measured>
0.6

$$$$
>  <molecule>
Cc1ccccc1OCC(CN1CC1C)OC(=O)NCCCCCCn1c(=O)n(CCCCCCNC(=O)OC(COc2ccccc2C)CN2CC2C)c(=O)n(CCCCCCNC(=O)OC(COc2ccccc2C)CN2CC2C)c1=O (centres unmarked)

>  <readout.unit>
fold

>  <measured>
1.5

$$$$

* * *

Tested on: Rtkn-GFP
Test: ToxTracker genotoxicity assay, Rtkn-GFP reporter induction
Conditions: GFP induction vs vehicle at 50% cytotoxicity; 24 h exposure, no S9
Property: Genotoxicity test, Without S9 rat liver extract, Rtkn, 50; scope: individual molecules
readout: Genotoxicity test, Without S9 rat liver extract, Rtkn, 50 (fold)

>  <molecule>
CCCCOCC(CN1CC1C)OC(=O)Nc1ccc(C)c(NC(=O)OC(COCCCC)CN2CC2C)c1 (centres unmarked) [Comp. Ex. 11, reference compound]

>  <readout.unit>
fold

>  <measured>
2.3

$$$$
>  <molecule>
CCCCOCC(CN1CC1C)OC(=O)NCCCCCCn1c(=O)n(CCCCCCNC(=O)OC(COCCCC)CN2CC2C)c(=O)n(CCCCCCNC(=O)OC(COCCCC)CN2CC2C)c1=O (centres unmarked)

>  <readout.unit>
fold

>  <measured>
0.6

$$$$
>  <molecule>
CCCCCCCCCC(=O)OCC(CN1CC1C)OC(=O)NC(C)(C)c1cccc(C(C)(C)NC(=O)OC(COC(=O)CCCCCCCCC)CN2CC2C)c1 (centres unmarked)

>  <readout.unit>
fold

>  <measured>
1.0

$$$$
>  <molecule>
CC(CN1CC1C)OC(=O)NCCCCCC/N=c1\oc(=O)n(CCCCCCNC(=O)OC(C)CN2CC2C)c(=O)n1CCCCCCNC(=O)OC(C)CN1CC1C (centres unmarked)

>  <readout.unit>
fold

>  <measured>
0.9

$$$$
>  <molecule>
CCCCOCC(CN1CC1C)OC(=O)NC(C)(C)c1cccc(C(C)(C)NC(=O)OC(COCCCC)CN2CC2C)c1 (centres unmarked)

>  <readout.unit>
fold

>  <measured>
1.3

$$$$
>  <molecule>
CCCCOCC(CN1CC1C)OC(=O)NC1CCC(CC2CCC(NC(=O)OC(COCCCC)CN3CC3C)CC2)CC1 (centres unmarked)

>  <readout.unit>
fold

>  <measured>
1.0

$$$$
>  <molecule>
COCCOCCOCCOCCOCCOCCOCCOCCOCCOCCOCCOCCOCCOCC(CN1CC1C)OC(=O)NCCCCCCn1c(=O)n(CCCCCCNC(=O)OC(COCCOCCOCCOCCOCCOCCOCCOCCOCCOCCOCCOCCOCCOC)CN2CC2C)c(=O)n(CCCCCCNC(=O)OC(COCCOCCOCCOCCOCCOCCOCCOCCOCCOCCOCCOCCOCCOC)CN2CC2C)c1=O (centres unmarked)

>  <readout.unit>
fold

>  <measured>
1.1

$$$$
>  <molecule>
CCCCC(CC)COCC(CN1CC1C)OC(=O)NCCCCCCn1c(=O)n(CCCCCCNC(=O)OC(COCC(CC)CCCC)CN2CC2C)c(=O)n(CCCCCCNC(=O)OC(COCC(CC)CCCC)CN2CC2C)c1=O (centres unmarked)

>  <readout.unit>
fold

>  <measured>
1.2

$$$$
>  <molecule>
CC(OC(=O)NCCCCCCn1c(=O)n(CCCCCCNC(=O)OC(C)C(C)N2CC2C)c(=O)n(CCCCCCNC(=O)OC(C)C(C)N2CC2C)c1=O)C(C)N1CC1C (centres unmarked)

>  <readout.unit>
fold

>  <measured>
1.4

$$$$
>  <molecule>
CCCCCCCCCC(=O)OCC(CN1CC1C)OC(=O)NCCCCCCn1c(=O)n(CCCCCCNC(=O)OC(COC(=O)CCCCCCCCC)CN2CC2C)c(=O)n(CCCCCCNC(=O)OC(COC(=O)CCCCCCCCC)CN2CC2C)c1=O (centres unmarked)

>  <readout.unit>
fold

>  <measured>
1.0

$$$$
>  <molecule>
C=CCOCC(CN1CC1C)OC(=O)NCCCCCCn1c(=O)n(CCCCCCNC(=O)OC(COCC=C)CN2CC2C)c(=O)n(CCCCCCNC(=O)OC(COCC=C)CN2CC2C)c1=O (centres unmarked)

>  <readout.unit>
fold

>  <measured>
1.1

$$$$
